Tested on: Blood Sugar Level
Experiment: Effect on blood sugar level
Format: in vivo, SD/Slc male rats
Conditions: 200 mg/kg perorally; 0 hr; starved overnight
Description: Effect on Blood Sugar Level After starving SD/Slc male rats (body weight, 250 g; 6 animals per group) overnight, 20-μl blood samples were drawn from the tail vein of each rat while it was not anesthetized. Records were taken of the sugar level in each blood sample. […] At 2, 4 and 6 hours of the administration, blood samples were taken and their blood sugar levels were measured. […]
quantity: Blood sugar level, 0 hr (mean ± S.E.) (mg/dL)
Report only the number, with the unit mg/dL understood.

Below: 4 compounds and their reported Blood sugar level, 0 hr (mean ± S.E.).
q: Suppose we examine the compound Cc1cccc(C)c1NC(=O)CCNCCCN(C(C)C)C(C)C [compound 11] ; what Blood sugar level, 0 hr (mean ± S.E.) value has been reported?
a: 62.3

q: Reported Blood sugar level, 0 hr (mean ± S.E.), compound Cc1cccc(C)c1NC(=O)CCNCCNC(C)C [Compound No. 4] : ____
a: 69.1

q: Fill in the blank: the reported Blood sugar level, 0 hr (mean ± S.E.) of CC(C)N(CCC(C(N)=O)(c1ccccc1)c1ccccn1)C(C)C (centres unmarked) [Disopyramide, reference compound] is ____.
a: 64.5

q: For the compound Cc1cccc(C)c1NC(=O)CCNCCN(C(C)C)C(C)C [Compound No. 1] , what Blood sugar level, 0 hr (mean ± S.E.) is on record?
a: 83.7

Kindly review the next compound as well.
q: Quick check: Blood sugar level, 0 hr (mean ± S.E.) of Cc1cccc(C)c1NC(=O)CCNCCCN(C)C [Compound No. 2] ?
a: 76.1

Cited source: patent US4855497A
